Tested on: B16F0 melanoma tumour
Assay: Biodistribution in B16 melanoma bearing mice
Type: in vivo, C57BL/6J mice
Settings: B16 tumour, C57BL/6J mice, 6 h, mean ± SD, n = 5
In this section we review reported uptake KIDNEY values for a set of compounds.
MEASURED_PARAMETER: uptake KIDNEY (% ID/g)

compound="CCN(CC)CCNC(=O)c1ccc(I)nc1 [[^123I]14]" measurement_unit="% ID/g" result_number=2.4
compound="O=C(c1cncc(I)c1)N1CCN(Cc2ccccc2)CC1 [[^123I]20]" measurement_unit="% ID/g" result_number=2.4
compound="CCCN(CCC)CCCCNC(=O)c1cncc(I)c1 [[^123I]17]" measurement_unit="% ID/g" result_number=1.7
compound="CCN(CC)CCNC(=O)c1cncc(I)c1 [[^123I]11]" measurement_unit="% ID/g" result_number=0.5

###

In this section we review reported Organ distribution Liver values for a set of compounds.
Test system: B16F0 melanoma tumour
Experiment: Biodistribution in B16 melanoma bearing mice
Type: in vivo, C57BL/6J mice
Details: B16F0 tumour, C57BL/6J mice, 1 h, mean ± S.D., n = 5
MEASURED_PARAMETER: Organ distribution Liver (% ID/organ)

compound="O=C(c1cncc(I)c1)N1CCN(Cc2ccccc2)CC1 [[^123I]20]" measured_parameter="Organ distribution Liver" result_number=3.6
compound="CCN(CC)CCNC(=O)c1ccc(I)nc1 [[^123I]14]" measured_parameter="Organ distribution Liver" result_number=2.7
compound="CCCN(CCC)CCCCNC(=O)c1cncc(I)c1 [[^123I]17]" measured_parameter="Organ distribution Liver" result_number=2.0
compound="CCN(CC)CCNC(=O)c1cncc(I)c1 [[^123I]11]" measured_parameter="Organ distribution Liver" result_number=1.8

###

System: B16F0 melanoma tumour
Assay: Biodistribution in B16 melanoma bearing mice
Assay type: in vivo, C57BL/6J mice
Conditions: B16F0 tumour, C57BL/6J mice, 1 h, mean ± S.D., n = 5
In this section we review reported Organ distribution Tumour values for a set of molecules.
MEASURED_PARAMETER: Organ distribution Tumour (% ID/organ)

molecule="CCCN(CCC)CCCCNC(=O)c1cncc(I)c1 [[^123I]17]" target_of_assay="B16F0 melanoma tumour" measured_parameter="Organ distribution Tumour" measurement_unit="% ID/organ" result_number=0.64
molecule="CCN(CC)CCNC(=O)c1ccc(I)nc1 [[^123I]14]" target_of_assay="B16F0 melanoma tumour" measured_parameter="Organ distribution Tumour" measurement_unit="% ID/organ" result_number=1.8
molecule="O=C(c1cncc(I)c1)N1CCN(Cc2ccccc2)CC1 [[^123I]20]" target_of_assay="B16F0 melanoma tumour" measured_parameter="Organ distribution Tumour" measurement_unit="% ID/organ" result_number=2.6
molecule="CCN(CC)CCNC(=O)c1cncc(I)c1 [[^123I]11]" target_of_assay="B16F0 melanoma tumour" measured_parameter="Organ distribution Tumour" measurement_unit="% ID/organ" result_number=1.3

###

System: B16F0 melanoma tumour
Assay: Biodistribution in B16 melanoma bearing mice
Type: in vivo, C57BL/6J mice
Conditions: B16F0 tumour, C57BL/6J mice, 6 h, mean ± S.D., n = 5
MEASURED_PARAMETER: Organ distribution Intestine (% ID/organ)

compound="CCN(CC)CCNC(=O)c1cncc(I)c1 [[^123I]11]" target_of_assay="B16F0 melanoma tumour" measurement_unit="% ID/organ" result_number=2.8
compound="O=C(c1cncc(I)c1)N1CCN(Cc2ccccc2)CC1 [[^123I]20]" target_of_assay="B16F0 melanoma tumour" measurement_unit="% ID/organ" result_number=30
compound="CCN(CC)CCNC(=O)c1ccc(I)nc1 [[^123I]14]" target_of_assay="B16F0 melanoma tumour" measurement_unit="% ID/organ" result_number=5
compound="CCCN(CCC)CCCCNC(=O)c1cncc(I)c1 [[^123I]17]" target_of_assay="B16F0 melanoma tumour" measurement_unit="% ID/organ" result_number=9

###

In this section we review reported uptake LIVER values for a set of compounds.
Test system: B16F0 melanoma tumour
Test: Biodistribution in B16 melanoma bearing mice
Type: in vivo, C57BL/6J mice
Conditions: B16 melanoma bearing mice, 1 h
MEASURED_PARAMETER: uptake LIVER

compound="CCN(CC)CCNC(=O)c1ccc(F)nc1 [[^18F]MEL2]" result="2.813 % ID/g"
compound="CCN(CC)CCNC(=O)c1ccnc(F)c1 [[^18F]MEL8]" result="3.19 % ID/g"
compound="CCCCN(C)CCCCNC(=O)c1ccc(F)nc1 [[^18F]MEL4]" result="36.76 % ID/g"
compound="CCN(CC)CCNC(=O)c1cccnc1F [[^18F]MEL6]" result="4.9 % ID/g"

###

In this section we review reported uptake LIVER values for a set of compounds.
Test system: B16F0 melanoma tumour
Experiment: Biodistribution in B16 melanoma bearing mice
Format: in vivo, C57BL/6J mice
Conditions: B16 melanoma bearing mice, 3 h
MEASURED_PARAMETER: uptake LIVER

compound="CCN(CC)CCNC(=O)c1ccnc(F)c1 [[^18F]MEL8]" target_of_assay="B16F0 melanoma tumour" result="0.42 % ID/g"
compound="CCN(CC)CCNC(=O)c1cccnc1F [[^18F]MEL6]" target_of_assay="B16F0 melanoma tumour" result="1.9 % ID/g"
compound="CCN(CC)CCNC(=O)c1ccc(F)nc1 [[^18F]MEL2]" target_of_assay="B16F0 melanoma tumour" result="0.491 % ID/g"
compound="CCCCN(C)CCCCNC(=O)c1ccc(F)nc1 [[^18F]MEL4]" target_of_assay="B16F0 melanoma tumour" result="32.81 % ID/g"

###

Tested on: B16F0 melanoma tumour
Assay: Biodistribution in B16 melanoma bearing mice
Type: in vivo, C57BL/6J mice
Conditions: B16 melanoma bearing mice, 6 h
In this section we review reported uptake BONE values for a set of compounds.
MEASURED_PARAMETER: uptake BONE (% ID/g)

compound="CCN(CC)CCNC(=O)c1ccnc(F)c1 [[^18F]MEL8]" measurement_unit="% ID/g" result_number=0.43
compound="CCN(CC)CCNC(=O)c1cccnc1F [[^18F]MEL6]" measurement_unit="% ID/g" result_number=5.6
compound="CCCCN(C)CCCCNC(=O)c1ccc(F)nc1 [[^18F]MEL4]" measurement_unit="% ID/g" result_number=1.03
compound="CCN(CC)CCNC(=O)c1ccc(F)nc1 [[^18F]MEL2]" measurement_unit="% ID/g" result_number=0.515

###

In this section we review reported uptake TUMOUR values for a set of compounds.
Test system: B16F0 melanoma tumour
Test: Biodistribution in B16 melanoma bearing mice
Format: in vivo, C57BL/6J mice
Details: B16 melanoma bearing mice, 6 h
MEASURED_PARAMETER: uptake TUMOUR (% ID/g)

compound="CCN(CC)CCNC(=O)c1ccnc(F)c1 [[^18F]MEL8]" target_of_assay="B16F0 melanoma tumour" measured_parameter="uptake TUMOUR" result_number=7.20
compound="CCCCN(C)CCCCNC(=O)c1ccc(F)nc1 [[^18F]MEL4]" target_of_assay="B16F0 melanoma tumour" measured_parameter="uptake TUMOUR" result_number=5.29
compound="CCN(CC)CCNC(=O)c1ccc(F)nc1 [[^18F]MEL2]" target_of_assay="B16F0 melanoma tumour" measured_parameter="uptake TUMOUR" result_number=7.747
compound="CCN(CC)CCNC(=O)c1cccnc1F [[^18F]MEL6]" target_of_assay="B16F0 melanoma tumour" measured_parameter="uptake TUMOUR" result_number=4.8

###

System: B16F0 melanoma tumour
Experiment: Biodistribution in B16 melanoma bearing mice
Assay type: in vivo, C57BL/6J mice
Settings: B16F0 tumour, C57BL/6J mice, 6 h, mean ± S.D., n = 5
In this section we review reported Organ distribution Spleen values for a set of compounds.
MEASURED_PARAMETER: Organ distribution Spleen

compound="O=C(c1cncc(I)c1)N1CCN(Cc2ccccc2)CC1 [[^123I]20]" measured_parameter="Organ distribution Spleen" result="0.04 ± 0.02 % ID/organ"
compound="CCN(CC)CCNC(=O)c1cncc(I)c1 [[^123I]11]" measured_parameter="Organ distribution Spleen" result="0.05 ± 0.04 % ID/organ"
compound="CCN(CC)CCNC(=O)c1ccc(I)nc1 [[^123I]14]" measured_parameter="Organ distribution Spleen" result="0.17 ± 0.05 % ID/organ"
compound="CCCN(CCC)CCCCNC(=O)c1cncc(I)c1 [[^123I]17]" measured_parameter="Organ distribution Spleen" result="0.13 ± 0.02 % ID/organ"

###

System: B16F0 melanoma tumour
Assay: Biodistribution in B16 melanoma bearing mice
Format: in vivo, C57BL/6J mice
Conditions: B16 melanoma bearing mice, 15 min
In this section we review reported uptake MUSCLE values for a set of compounds.
MEASURED_PARAMETER: uptake MUSCLE (% ID/g)

compound="CCN(CC)CCNC(=O)c1cccnc1F [[^18F]MEL6]" result_number=4.0
compound="CCN(CC)CCNC(=O)c1ccnc(F)c1 [[^18F]MEL8]" result_number=4.16
compound="CCCCN(C)CCCCNC(=O)c1ccc(F)nc1 [[^18F]MEL4]" result_number=2.83
compound="CCN(CC)CCNC(=O)c1ccc(F)nc1 [[^18F]MEL2]" result_number=3.796
